TARGET_DESC: USP1 (construct USP1 (I-785, GG670, 671AA)/UAF1 (I-677)-Flag) (Homo sapiens (Human), UniProt O94782, G670A/G671A)
Sequence (O94782 whole entry G670A/G671A): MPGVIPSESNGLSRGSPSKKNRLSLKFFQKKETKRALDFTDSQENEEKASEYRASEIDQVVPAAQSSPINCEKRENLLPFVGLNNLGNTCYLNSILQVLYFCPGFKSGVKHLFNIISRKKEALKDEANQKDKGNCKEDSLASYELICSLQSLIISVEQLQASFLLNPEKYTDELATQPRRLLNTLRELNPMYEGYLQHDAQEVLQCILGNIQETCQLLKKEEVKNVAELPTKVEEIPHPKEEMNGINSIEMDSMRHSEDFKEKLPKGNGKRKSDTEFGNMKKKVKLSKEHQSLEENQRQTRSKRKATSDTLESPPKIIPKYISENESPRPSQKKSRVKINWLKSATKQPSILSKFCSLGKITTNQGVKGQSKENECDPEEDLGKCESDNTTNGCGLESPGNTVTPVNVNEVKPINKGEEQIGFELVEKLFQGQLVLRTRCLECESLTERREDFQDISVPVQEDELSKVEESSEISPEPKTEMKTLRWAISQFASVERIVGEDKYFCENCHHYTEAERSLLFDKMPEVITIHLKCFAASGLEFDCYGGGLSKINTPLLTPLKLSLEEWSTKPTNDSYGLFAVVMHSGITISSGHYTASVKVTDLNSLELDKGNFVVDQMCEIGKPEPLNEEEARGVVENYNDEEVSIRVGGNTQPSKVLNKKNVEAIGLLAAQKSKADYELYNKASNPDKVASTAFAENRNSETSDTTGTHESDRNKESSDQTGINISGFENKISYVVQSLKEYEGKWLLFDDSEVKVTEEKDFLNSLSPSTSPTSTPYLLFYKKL
Sequence (Q8TAF3 whole entry partner): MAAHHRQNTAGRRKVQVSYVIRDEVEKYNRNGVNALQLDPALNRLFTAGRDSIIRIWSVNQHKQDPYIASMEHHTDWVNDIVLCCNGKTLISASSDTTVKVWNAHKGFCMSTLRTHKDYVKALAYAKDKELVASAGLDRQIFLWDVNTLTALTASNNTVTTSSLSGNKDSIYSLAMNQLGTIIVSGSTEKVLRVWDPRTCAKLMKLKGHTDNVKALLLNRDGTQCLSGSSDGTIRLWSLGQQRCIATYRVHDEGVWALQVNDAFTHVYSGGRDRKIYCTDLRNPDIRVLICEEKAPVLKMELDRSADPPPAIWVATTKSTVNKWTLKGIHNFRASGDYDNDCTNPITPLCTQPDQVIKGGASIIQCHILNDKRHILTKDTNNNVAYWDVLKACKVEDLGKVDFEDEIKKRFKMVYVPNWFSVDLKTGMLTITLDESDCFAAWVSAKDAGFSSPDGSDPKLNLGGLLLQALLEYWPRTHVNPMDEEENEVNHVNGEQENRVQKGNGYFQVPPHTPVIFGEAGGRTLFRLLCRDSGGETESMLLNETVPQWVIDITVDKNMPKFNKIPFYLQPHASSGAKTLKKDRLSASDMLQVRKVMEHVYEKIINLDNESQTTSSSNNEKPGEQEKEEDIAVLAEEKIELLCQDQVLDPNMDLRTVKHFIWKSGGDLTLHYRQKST
TEST_DETAILS: Ubiquitin-Rhodamine 110 assay for USP1 activity
CONDITION_DESCRIPTION: USP1/UAF1 25 pM, Ub-Rh110 25 nM, 30 min preincubation
pIC50: −log10 of the molar value.
OBSERVATION_TYPE: pIC50

Guide cases for pIC50, answers given:
- COMPOUND_STRING: "CC(C)c1ccccc1-c1ncc2[nH]c(=O)n(Cc3ccc4c(c3)ncn4C)c2n1"
  pIC50: "< 5.70"
- COMPOUND_STRING: "CC(C)c1ncccc1-c1ncc2c(n1)n(Cc1ccc(-c3nc(C(F)(F)F)cn3C)cc1)c(=O)n2C1CCOCC1"
  pIC50: "5.70 to 6.70"
- COMPOUND_STRING: "CC(C)c1ccccc1-c1ncc2[nH]c(=O)n(Cc3ccc(-n4cc(C5CCNCC5)cn4)cc3)c2n1"
  pIC50: "5.70 to 6.70"

Query molecule follows.
Form field: reported pIC50 of CCC(=O)c1ccccc1-c1ncc2[nH]c(=O)n(Cc3ccc(-c4nc(C(F)(F)F)cn4C)cc3)c2n1
5.70 to 6.70

* * *

TARGET_DESC: USP1 (construct USP1 (I-785, GG670, 671AA)/UAF1 (I-677)-Flag) (Homo sapiens (Human), UniProt O94782, G670A/G671A)
TEST_DETAILS: Ubiquitin-Rhodamine 110 assay for USP1 activity
Format: biochemical
CONDITION_DESCRIPTION: USP1/UAF1 25 pM, Ub-Rh110 25 nM, 30 min preincubation
pIC50: −log10 of the molar value.
OBSERVATION_TYPE: pIC50

- COMPOUND_STRING: "CC(C)c1ccccc1-c1ncc2[nH]c(=O)n(Cc3ccc(C(=O)N4CCC(F)(F)CC4)cc3)c2n1"
  OBSERVATION_TYPE: "pIC50"
  RESULT: "5.70 to 6.70"
- COMPOUND_STRING: "CC(C)c1ccccc1-c1ncc2[nH]c(=O)n(Cc3ccc(-c4nc(C(F)(F)F)nn4C)cc3)c2n1"
  OBSERVATION_TYPE: "pIC50"
  RESULT: "> 7.30"
- COMPOUND_STRING: "CC(C)c1ncccc1-c1ncc2c(n1)n(Cc1ccc(-c3nc(C4CC4)cn3C)cc1)c(=O)n2C"
  OBSERVATION_TYPE: "pIC50"
  RESULT: "6.70 to 7.30"
- COMPOUND_STRING: "Cc1nc(CN(C)C(=O)c2ccc(Cn3c(=O)[nH]c4cnc(-c5ccccc5C(C)C)nc43)cc2)cs1"
  OBSERVATION_TYPE: "pIC50"
  RESULT: "6.70 to 7.30"
- COMPOUND_STRING: "CC(C)c1ncccc1-c1ncc2[nH]c(=O)n(Cc3ccc(-c4nc(C(F)(F)F)cn4C)c(F)c3)c2n1"
  OBSERVATION_TYPE: "pIC50"
  RESULT: "> 7.30"

Tell me the measured pIC50 of O=c1[nH]c2cnc(-c3cccnc3C3CC3)nc2n1Cc1ccc(-c2nc(C(F)(F)F)cn2C2COC2)cc1 , please.
> 7.30

# pIC50 lookup, item CC(C)c1ccccc1-c1ncc2c(n1)n(Cc1ccc(N(C)S(=O)(=O)c3ccn(C)n3)cc1)c(=O)n2C
6.70 to 7.30

* * *

TARGET_DESC: USP1 (construct USP1 (I-785, GG670, 671AA)/UAF1 (I-677)-Flag) (Homo sapiens (Human), UniProt O94782, G670A/G671A)
TEST_DETAILS: Ubiquitin-Rhodamine 110 assay for USP1 activity
CONDITION_DESCRIPTION: USP1/UAF1 25 pM, Ub-Rh110 25 nM, 30 min preincubation
Protocol: Example 53: Ubitquin-Rhodamine 110 Assay for USP1 Activity […] Nanoliter quantities of either an 8-point or 10-point, 3-fold serial dilution in DMSO was pre-dispensed into assay plates (Perkin Elmer, ProxiPlate-384 F Plus, #6008269) for a final test concentration range of either 25 μM to 11 nM or 25 μM to 1.3 nM, respectively. […] Fluorescence was read on the Envision (Excitation at 485 nm and Emission at 535 nm; Perkin Elmer) or on the PheraSTAR (Excitation at 485 nm and Emission at 535 nm; BMG Labtech). […]
OBSERVATION_TYPE: IC50

- COMPOUND: "CCOC(=O)c1cc(C)nn1-c1ccc(Cn2c(=O)[nH]c3cnc(-c4ccccc4C4CC4)nc32)cc1 [Compound I-99]"
  IC50: "< 50 nM"

# get_value(readout='IC50', item= CC(C)c1ccccc1-c1ncc2[nH]c(=O)n(Cc3ccc(-c4nc(C(F)(F)F)cn4C)cc3)c2n1 [Compound I-138] )
< 50 nM

# lookup: IC50 of Cn1cc(C(F)(F)F)nc1-c1ccc(Cn2c(=O)[nH]c3cnc(-c4cccnc4F)nc32)cc1 [Compound I-57]
200 to 2000 nM

# lookup: IC50 of CCc1ccccc1-c1ncc2[nH]c(=O)n(Cc3ccc(-n4cccn4)cc3)c2n1 [Compound I-27]
50 to 200 nM

Which IC50 value belongs to Cc1cc(C(F)(F)F)nn1-c1ccc(Cn2c(=O)n(C)c3cnc(-c4cccnc4C(C)C)nc32)cc1 [Compound I-113] ?
< 50 nM

Quick check: IC50 of CN(C)c1ncccc1-c1ncc2[nH]c(=O)n(Cc3ccc(-c4nc(C(F)(F)F)cn4C)cc3)c2n1 [Compound I-323] ?
< 50 nM

Given the compound O=c1[nH]c2cnc(-c3ccccc3OCC3CC3)nc2n1Cc1ccc(-n2cccn2)cc1 [Compound I-23] , what is its reported IC50?
50 to 200 nM

* * *

A collection of molecules and their measured IC50
TARGET_DESC: USP1 (construct USP1 (I-785, GG670, 671AA)/UAF1 (I-677)-Flag) (Homo sapiens (Human), UniProt O94782, G670A/G671A)
TEST_DETAILS: Ubiquitin-Rhodamine 110 assay for USP1 activity
CONDITION_DESCRIPTION: USP1/UAF1 25 pM, Ub-Rh110 25 nM, 30 min preincubation

Solved entries:
- COMPOUND_STRING: "CC(C)c1ccccc1-c1ncc2[nH]c(=O)n(Cc3ccc(-n4cc(-c5ccccn5)nn4)cc3)c2n1"
  IC50: "200 to 2000 nM"
- COMPOUND_STRING: "CC(C)c1ccccc1-c1ncc2[nH]c(=O)n(Cc3ccc(C(=O)NCc4cnn(C)c4)cc3)c2n1"
  IC50: "200 to 2000 nM"

Form field: reported IC50 of Cc1cc(C(=O)Nc2ccc(Cn3c(=O)n(C)c4cnc(-c5ccccc5C(C)C)nc43)cc2)n(C)n1
200 to 2000 nM

Request the reported IC50 associated with CC(C)c1ncccc1-c1ncc2c(n1)n(Cc1ccc(-c3nc(C(F)(F)F)cn3C)cc1F)c(=O)n2C
50 to 200 nM

IC50 for CC(C)c1ccccc1-c1ncc2[nH]c(=O)n(Cc3ccc(-n4ccc([C@@H]5CCCNC5)n4)cc3)c2n1 ?
50 to 200 nM

* * *

TARGET_DESC: USP1 (construct USP1 (I-785, GG670, 671AA)/UAF1 (I-677)-Flag) (Homo sapiens (Human), UniProt O94782, G670A/G671A)
TEST_DETAILS: Ubiquitin-Rhodamine 110 assay for USP1 activity
CONDITION_DESCRIPTION: USP1/UAF1 25 pM, Ub-Rh110 25 nM, 30 min preincubation
OBSERVATION_TYPE: IC50

As a guide, the following entries are already answered.
- COMPOUND: "CN(C)C(=O)CNc1ncccc1-c1ncc2[nH]c(=O)n(Cc3ccc(-c4nc(C(F)(F)F)cn4C)cc3)c2n1"
  IC50: "200 to 2000 nM"
- COMPOUND: "O=c1[nH]c2cnc(-c3cccnc3OC(F)F)nc2n1Cc1ccc(-n2ccc(F)n2)cc1"
  IC50: "200 to 2000 nM"
- COMPOUND: "CC(C)c1ccccc1-c1ncc2[nH]c(=O)n(Cc3ccc(C(=O)N(C)C4CCOC4)cc3)c2n1 (stereo not shown)"
  IC50: "200 to 2000 nM"
- COMPOUND: "CC(C)c1ncccc1-c1ncc2[nH]c(=O)n(Cc3cc(F)c(-c4nc(C(F)(F)F)cn4C)c(F)c3)c2n1"
  IC50: "< 50 nM"
- COMPOUND: "Cc1cc(C#N)nn1-c1ccc(Cn2c(=O)[nH]c3cnc(-c4ccccc4C(C)C)nc32)cc1"
  IC50: "< 50 nM"

Entry Cc1nc(F)ccc1-c1ncc2c(n1)n(Cc1ccc(-c3nc(C(F)(F)F)cn3C)cc1)c(=O)n2C : reported IC50 = ?
200 to 2000 nM

# lookup: IC50 of CNC(=O)N1CCC(c2ccn(-c3ccc(Cn4c(=O)[nH]c5cnc(-c6ccccc6C(C)C)nc54)cc3)n2)CC1
< 50 nM
